# System: CD2F1 mice, L1210 leukemia ip, survival T/C
# protocolSummary: NCI In Vivo Anticancer Drug Screen. Data for tumor model L1210 Leukemia (intraperitoneal) in CD2F1 (CDF1) mice
# conditionContext: endpoint: mean survival time; dose: 100.0 mg/kg/injection; schedule: Q01DX001 (ip); vehicle: saline with Tween-80; higher = longer survival
Inconclusive results and toxic doses are left out.
Below is a list of entries, each paired with its recorded T/C value.

T/C lookup needed for c1ccc2c(c1)OCC(CN1CCc3[nH]c4ccccc4c3C1)O2 (stereo unspecified) , thanks.
98 % of control

How about this compound: O=C=Nc1ccc(N=Nc2ccccc2)cc1
95 % of control

How about this compound: Cc1ccccc1C1CCC(=O)OC1=O (stereo unspecified)
97 % of control

How about this compound: Nc1ccc(NC(=O)COc2cccc(Cl)c2)cc1
90 % of control

How about this compound: O=[N+]([O-])c1cccc(-c2nn[nH]n2)c1
93 % of control

How about this compound: C=CC(=O)NC(C)(C)CC(C)=O
98 % of control

How about this compound: CCOC(=O)c1ccc(NC(=O)NC(Cc2ccccc2)c2ccccc2)cc1 (stereo unspecified)
96 % of control

###

# System: CD2F1 mice, L1210 leukemia ip, survival T/C
# protocolSummary: NCI In Vivo Anticancer Drug Screen. Data for tumor model L1210 Leukemia (intraperitoneal) in CD2F1 (CDF1) mice
# conditionContext: endpoint: median survival time; dose: 25.0 mg/kg/injection; schedule: Q04DX003 (ip); vehicle: saline
Inconclusive results and toxic doses are left out. Rule for the calls: active = survival T/C of 150% or more; inactive = T/C below 125% in these data.
Thanks in advance; please answer with one of these: active, inactive

[[record]]
compound = "Cc1cc(N=Nc2ccc(S(=O)(=O)[O-])cc2)cc(C(=O)[O-])c1[OH2+].Cc1cc(N=Nc2ccc(S(=O)(=O)[O-])cc2)cc(C(=O)[O-])c1[OH2+].NC1CCCCC1N.[Na+].[Pt+4]"
classname = "active"


Hey, what did the test say about O=C(O)CCC(O)C(=O)O.[NH-]C1CCCCC1[NH-].[Pt+2] (stereo not given) ?
active

How about this compound: O=[P+](O)O[P+](=O)O.O=[P+](O)O[P+](=O)O.O=[P+](O)O[P+](=O)O.O=[P+](O)O[P+](=O)O.[Pt].[Pt]
inactive

How about this compound: CC(=O)NC(CCC(=O)O)C(=O)O.[NH-]C1CCCCC1[NH-].[Pt+2] (stereo not given)
inactive

How about this compound: NC1CCCCC1N.O=C1C=C/C(=C(/c2ccc(O)c(Br)c2)c2ccccc2S(=O)(=O)[O-])C=C1Br.O=C1C=C/C(=C(/c2ccc(O)c(Br)c2)c2ccccc2S(=O)(=O)[O-])C=C1Br.[Pt+4]
active

###

# Tested on: CD2F1 mice, L1210 leukemia ip, survival T/C
# protocolSummary: NCI In Vivo Anticancer Drug Screen. Data for tumor model L1210 Leukemia (intraperitoneal) in CD2F1 (CDF1) mice
# conditionContext: endpoint: mean survival time; dose: 50.0 mg/kg/injection; schedule: Q01DX005 (ip); vehicle: water; higher = longer survival
Inconclusive results and toxic doses are left out.
valueKind: T/C

Look over these answered cases.
[[record]]
molecule = "NC(=O)c1n[nH]c(C2OC(COP(=O)(O)O)C(O)C2O)n1 (stereo unspecified)"
valuekind = "T/C"
recordedresult = "96 % of control"

[[record]]
molecule = "CCCC(=O)Nc1ncnc2c1nc(SCc1ccccc1)n2C1OC2COP(=O)(O)OC2C1OC(=O)CCC (stereo unspecified)"
valuekind = "T/C"
recordedresult = "101 % of control"

[[record]]
molecule = "Cc1nc(C(=O)O)c(C)c(=O)[nH]1"
valuekind = "T/C"
recordedresult = "104 % of control"

[[record]]
molecule = "Cn1c(=O)c2c(nc(N3CCOCC3)n2CCCNCC(O)c2ccc(O)cc2)n(C)c1=O (stereo unspecified)"
valuekind = "T/C"
recordedresult = "100 % of control"


T/C lookup needed for Cc1cc(C(O)CNC(C)CCn2cnc3c2c(=O)n(C)c(=O)n3C)ccc1O (stereo unspecified) , thanks.
96 % of control

How about this molecule: Nc1ncnc2cc3ncn(C4OC(CO)C(O)C4O)c3cc12 (stereo unspecified)
106 % of control

###

# Tested on: CD2F1 mice, L1210 leukemia ip, survival T/C
# protocolSummary: NCI In Vivo Anticancer Drug Screen. Data for tumor model L1210 Leukemia (intraperitoneal) in CD2F1 (CDF1) mice
# conditionContext: endpoint: mean survival time; dose: 6.25 mg/kg/injection; schedule: Q01DX009 (ip); vehicle: saline with Tween-80; higher = longer survival
Inconclusive results and toxic doses are left out.
Below is a list of entries, each paired with its recorded T/C value.

[[record]]
molecule = "NC(CC[Se]Cc1ccccc1)C(=O)O (configuration not stated)"
targetsystem = "CD2F1 mice, L1210 leukemia ip, survival T/C"
valuekind = "T/C"
recordedresult = "92 % of control"

[[record]]
molecule = "COc1ccccc1C1N(C)CCCN1C"
targetsystem = "CD2F1 mice, L1210 leukemia ip, survival T/C"
valuekind = "T/C"
recordedresult = "100 % of control"

[[record]]
molecule = "ClC1=C(Cl)C(Cl)=C(Cl)C1=Cc1ccccc1"
targetsystem = "CD2F1 mice, L1210 leukemia ip, survival T/C"
valuekind = "T/C"
recordedresult = "104 % of control"

[[record]]
molecule = "Nc1ncnc2c(C3OC(CO)C(O)C3O)[nH]nc12 (configuration not stated)"
targetsystem = "CD2F1 mice, L1210 leukemia ip, survival T/C"
valuekind = "T/C"
recordedresult = "108 % of control"


T/C lookup needed for O=C(OC1COC(OCc2ccccc2)C(OC(=O)c2ccccc2)C1OC(=O)c1ccccc1)c1ccccc1 (configuration not stated) , thanks.
102 % of control

How about this molecule: NC(CS(=O)c1ccc(Cl)cc1)C(=O)O (configuration not stated)
90 % of control

How about this molecule: COc1ccc(OC)c(/C=C/c2cc3ccccc3c[n+]2C)c1
102 % of control

How about this molecule: Nc1[nH]c(=O)ncc1C(=O)NC(CO)C(=O)O (configuration not stated)
100 % of control

How about this molecule: CCc1nc(N)nc(N)c1-c1ccc(Cl)c([N+](=O)[O-])c1
106 % of control

How about this molecule: COC(=O)c1ccc(C)c(NC2=NCCO2)c1
96 % of control

How about this molecule: Nc1nc(OCc2ccccc2)ncc1C(=O)NC(CO)C(=O)O (configuration not stated)
100 % of control

How about this molecule: CC1=NN(c2ccccc2)C(=O)/C1=C/N(C)C
97 % of control

###

# System: CD2F1 mice, L1210 leukemia ip, survival T/C
# protocolSummary: NCI In Vivo Anticancer Drug Screen. Data for tumor model L1210 Leukemia (intraperitoneal) in CD2F1 (CDF1) mice
# conditionContext: endpoint: mean survival time; dose: 100.0 mg/kg/injection; schedule: Q01DX009 (ip); vehicle: saline
Inconclusive results and toxic doses are left out. The calls were made as follows: active = survival T/C of 150% or more; inactive = T/C below 125% in these data.
Thanks in advance; please answer with one of these: active, inactive

[[record]]
compound = "CC1C=NNC1=O (configuration not stated)"
classname = "inactive"


// switching to the query compound
Hey, what did the test say about CCOC(=O)CCC(=O)CC(O)(C(F)(F)F)C(F)(F)Cl (configuration not stated) ?
inactive

###

# System: CD2F1 mice, L1210 leukemia ip, survival T/C
# protocolSummary: NCI In Vivo Anticancer Drug Screen. Data for tumor model L1210 Leukemia (intraperitoneal) in CD2F1 (CDF1) mice
# conditionContext: endpoint: mean survival time; dose: 50.0 mg/kg/injection; schedule: Q04DX002 (ip); vehicle: saline with Tween-80; higher = longer survival
Toxic doses and inconclusive results are not listed.
valueKind: T/C

[[record]]
compound = "Cc1cc2c(cc1C)[n+]([O-])c1c(=O)[nH]c(=O)[nH]c1[n+]2[O-]"
valuekind = "T/C"
recordedresult = "102 % of control"

[[record]]
compound = "O=C1C2C3CC4C5C3C1C5C1(OCCO1)C42 (configuration not stated)"
valuekind = "T/C"
recordedresult = "107 % of control"

[[record]]
compound = "CN1C(=O)CCSC1=S"
valuekind = "T/C"
recordedresult = "105 % of control"


T/C lookup needed for CCC(=O)n1nc(-c2ccccc2)c2ccccc21 , thanks.
88 % of control

How about this compound: NC(=O)N/N=C1\CC(S(=O)(=O)O)NC(=O)N1 (configuration not stated)
98 % of control

How about this compound: Cc1ccc(C(=O)Nc2cccc(-n3cnc4c(=O)[nH]c(N)nc43)c2)cc1S(=O)(=O)F
90 % of control

How about this compound: CCCCCCCCCOc1ccc(Cl)cc1
100 % of control

###

# System: CD2F1 mice, L1210 leukemia ip, survival T/C
# protocolSummary: NCI In Vivo Anticancer Drug Screen. Data for tumor model L1210 Leukemia (intraperitoneal) in CD2F1 (CDF1) mice
# conditionContext: endpoint: mean survival time; dose: 75.0 mg/kg/injection; schedule: Q01DX001 (ip); vehicle: other; higher = longer survival
Toxic doses and inconclusive results are not listed.
valueKind: T/C

Look over these answered cases.
[[record]]
molecule = "Cc1cc(C(O)(C(=O)O)c2ccccc2)c(C)c(C)c1C (configuration not stated)"
recordedresult = "90 % of control"

[[record]]
molecule = "CC(=O)C(C(C)=O)C1=C(Cl)C(=O)c2ccccc2C1=O"
recordedresult = "94 % of control"

[[record]]
molecule = "CCN(CC)CCC(CN(C)C)C(C)=O (configuration not stated)"
recordedresult = "106 % of control"

[[record]]
molecule = "CCCCCCCCCCCCCCCC/C(=C\\c1ccc2ccccc2c1)[N+](=O)[O-]"
recordedresult = "106 % of control"

[[record]]
molecule = "CCOC(=O)CCCC/C(C)=N\\N=C(C(C)C)C(C)C"
recordedresult = "103 % of control"

[[record]]
molecule = "Clc1ccc(C#Cc2ccc(Cl)cc2)cc1"
recordedresult = "103 % of control"


Shifting focus to the molecule that follows.
Under CD2F1 mice, L1210 leukemia ip, survival T/C: T/C value of FC(F)(F)/C([S-])=C(/[S-])C(F)(F)F.[Fe].[c-]1[c-][c-][cH-][c-]1 ?
105 % of control
